Target: Phosphodiesterase; PDE3 & PDE4
Assay: Inhibition of dog left ventricle sarcoplasmic reticulum bound low-Km c-AMP phosphodiesterase
Type: protein assay, Canis lupus familiaris
Reported metric: IC50 (nM)

1. CSC1(C)C(=O)Nc2ccc(C3=NNC(=O)SC3)cc21 (stereo unspecified); 1200
2. CC1CC(=O)NN=C1c1ccc2c(c1)C(C)(C)C(=O)N2 (stereo unspecified); 240
3. Cc1cc2c(cc1C1=NNC(=O)SC1C)C(C)(C)C(=O)N2 (stereo unspecified); 3300
4. CC1SC(=O)NN=C1c1ccc2c(c1)C1(CCCCC1)C(=O)N2 (stereo unspecified); 1300
5. CC1(C)C(=O)Nc2cc3[nH]c(-c4ccncc4)nc3cc21 [ADIBENDAN]; 520
6. CC1SC(=O)NN=C1c1ccc2c(c1)C1(CCCS1)C(=O)N2 (stereo unspecified); 1400

* * *

System: cardiac myofibrillar ATPase (Canis familiaris)
Assay: Shift induced by 30 uM of compound, of the [Ca2+] concentration required for half-maximal activation of the canine cardiac myofibrillar ATPase
Details: Canis lupus familiaris
Reported metric: Delta pCa50

1. CC1SC(=O)NN=C1c1ccc2c(c1)C(C)(C)NC(=O)N2 (stereo not drawn); 0.24
2. CC1SC(=O)NN=C1c1ccc2c(c1)C(C)(C)OC(=O)N2 (stereo not drawn); 0.15
3. CC1SC(=O)NN=C1c1ccc2c(c1)C1(CCCC1)C(=O)N2 (stereo not drawn); 0.35

* * *

Below is a list of entries, each paired with its recorded Delta pCa50 value.
Test system: cardiac myofibrillar ATPase (Canis familiaris)
Assay: Change in calcium-induced activation of canine cardiac myofibrillar ATPase at 200 uM
Conditions: Canis lupus familiaris
Reported metric: Delta pCa50

1. CC1(C)C(=O)Nc2cc3[nH]c(-c4ccncc4)nc3cc21 [ADIBENDAN]; 0.16
2. CSC1C(=O)Nc2ccc(C3=NNC(=O)SC3)cc21 (stereo unspecified); 0.28
3. CC1SC(=O)NN=C1c1ccc2c(c1)C(C)(C)C(=O)N2 (stereo unspecified); 0.31
4. O=C1Cc2cc(C3=NNC(=O)SC3)ccc2N1; 0.08
5. CC1C(=O)Nc2ccc(C3=NNC(=O)SC3)cc21 (stereo unspecified); 0.15
6. CC1(C)SC(=O)NN=C1c1ccc2c(c1)C(C)(C)C(=O)N2; -0.02
7. CC1(C)C(=O)Nc2ccc(C3=NNC(=O)SC3)cc21; 0.16
8. Cc1nc(O)c(N)cc1-c1ccccc1; 0.1
9. CSC1(C)C(=O)Nc2ccc(C3=NNC(=O)CC3C)cc21 (stereo unspecified); 0.11
10. CSC1(C)C(=O)Nc2ccc(C3=NNC(=O)CC3)cc21 (stereo unspecified); 0.07
11. CSC1(C)C(=O)Nc2ccc(C3=NNC(=O)SC3)cc21 (stereo unspecified); 0.39

* * *

System: cardiac myofibrillar ATPase (Canis familiaris)
Assay: Shift induced by 30 uM of compound, of the [Ca2+] concentration required for half-maximal activation of the canine cardiac myofibrillar ATPase
Settings: Canis lupus familiaris
Decide using Delta pCa50: a value greater than or equal to 0.3 is Fulfilled, a smaller one is Not fulfilled.

1) Cc1cc2c(cc1C1=NNC(=O)SC1C)C(C)(C)C(=O)N2 (stereo unspecified); Not fulfilled
2) CC1SC(=O)NN=C1c1ccc2c(c1)C1(CC1)C(=O)N2 (stereo unspecified); Not fulfilled
3) CC1SC(=O)NN=C1c1ccc2c(c1)C1(SCCCS1)C(=O)N2 (stereo unspecified); Fulfilled
4) Cc1c(C2=NNC(=O)SC2C)ccc2c1C(C)(C)C(=O)N2 (stereo unspecified); Not fulfilled
5) CC1SC(=O)NN=C1c1ccc2c(c1)C1(CCCS1)C(=O)N2 (stereo unspecified); Fulfilled
6) CC1SC(=O)NN=C1c1ccc2c(c1)C1(SCCS1)C(=O)N2 (stereo unspecified); Fulfilled
7) Cc1cc(C2=NNC(=O)SC2C)cc2c1NC(=O)C2(C)C (stereo unspecified); Not fulfilled
8) CC1SC(=O)NN=C1c1ccc2c(c1)C1(CCCCC1)C(=O)N2 (stereo unspecified); Fulfilled
9) O=C1CCc2cc(C3=NNC(=O)SC3)ccc2N1; Not fulfilled
10) CC1SC(=O)NN=C1c1ccc2c(c1)C(C)(C)CC(=O)N2 (stereo unspecified); Fulfilled
11) CC1SC(=O)NN=C1c1ccc2c(c1)CC(C)(C)C(=O)N2 (stereo unspecified); Fulfilled

* * *

Tested on: cardiac myofibrillar ATPase (Canis familiaris)
Assay: Shift induced by 100 uM of compound, of the [Ca2+] concentration required for half-maximal activation of the canine cardiac myofibrillar ATPase
Settings: Canis lupus familiaris
Reported metric: Delta pCa50

1. CC1[Se]C(=O)NN=C1c1ccc2c(c1)C(C)(C)C(=O)N2 (centres undefined); 0.3
2. CC1OC(=O)NN=C1c1ccc2c(c1)C(C)(C)C(=O)N2 (centres undefined); 0.04
3. CC1NC(=O)NN=C1c1ccc2c(c1)C(C)(C)C(=O)N2 (centres undefined); -0.04
4. CC1CC(=O)NN=C1c1ccc2c(c1)C(C)(C)C(=O)N2 (centres undefined); -0.09

* * *

// IC50 lookup, one value per entry
Assay: Inhibition of dog left ventricle sarcoplasmic reticulum bound low-Km cAMP phosphodiesterase
Set-up: species or system Canis lupus familiaris
Reported metric: IC50 (nM)

1. Cc1cc(C2=NNC(=O)SC2C)cc2c1NC(=O)C2(C)C (stereo not given); 240
2. Cc1c(C2=NNC(=O)SC2C)ccc2c1C(C)(C)C(=O)N2 (stereo not given); 9200
3. COc1cc([S+](C)[O-])ccc1-c1nc2cccnc2[nH]1 (stereo not given); 140000
4. CC1SC(=O)NN=C1c1ccc2c(c1)C1(SCCCS1)C(=O)N2 (stereo not given); 260
5. CC1SC(=O)NN=C1c1ccc2c(c1)C1(SCCS1)C(=O)N2 (stereo not given); 350

* * *

Target: Phosphodiesterase; PDE3 & PDE4
Test: Inhibition of dog left ventricle sarcoplasmic reticulum bound low-Km c-AMP phosphodiesterase
Type: protein assay, Canis lupus familiaris
Overview of reported IC50 across a group of compounds:
Reported metric: IC50 (µM)

1) CC1SC(=O)NN=C1c1ccc2c(c1)C(C)(C)C(=O)N2 (stereo not drawn); 0.33
2) Cc1nc(O)c(N)cc1-c1ccccc1; 18
3) CC1SC(=O)NN=C1c1ccc2c(c1)C1(CC1)C(=O)N2 (stereo not drawn); 0.036
4) CC1[Se]C(=O)NN=C1c1ccc2c(c1)C(C)(C)C(=O)N2 (stereo not drawn); 0.54
5) CC1SC(=O)NN=C1c1ccc2c(c1)C1(CCCC1)C(=O)N2 (stereo not drawn); 1.1
6) CC1(C)SC(=O)NN=C1c1ccc2c(c1)C(C)(C)C(=O)N2; 66
7) CC1NC(=O)NN=C1c1ccc2c(c1)C(C)(C)C(=O)N2 (stereo not drawn); 0.17
8) CC1OC(=O)NN=C1c1ccc2c(c1)C(C)(C)C(=O)N2 (stereo not drawn); 0.96
